Test: inhibitors of E-selectin induction by TNFa, primary screen, imaging, HUVEC, immunofluorescence, MLSMR starter and 10KST1 sets (AID 487);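 as to inhibition: signal is fraction of cell area covered by stained E-selectin grains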
Conditions: HUVEC TNFalpha-induced E-selectin immunofluorescence imaging, at 2 µM; stronger effect = higher value
The source made the active and inactive calls.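 The calls were made as follows: active = visually confirmed hit in the image check and inhibition above 20%; inconclusive = visually confirmed hit but inhibition not above 20%; inactive = no visual hit in the image check.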
outcome measure: inhibition

compound | inhibition
Clc1ccc(-n2ncc3c(NCCCn4ccnc4)ncnc32)cc1 | -41.4% (inactive)
Cc1nc2ccccc2cc1O | -67% (inactive)
CCOc1ccc(/C(O)=C2/C(=O)C(=O)N(CCN(C)C)C2c2ccccc2)cc1Cl (stereo unspecified) | -64% (inactive)
Cn1c2ccccc2c2nn(-c3ccccc3)c(=O)cc21 | -28.5% (inactive)

For each of the compounds below, state inhibition.
1. NS(=O)(=O)c1cc2c(cc1Cl)NC(C1C[C@H]3C=C[C@@H]1C3)NS2(=O)=O (stereo partly specified)
2. O=C(CCCN1CC=C(n2c(=O)[nH]c3ccccc32)CC1)c1ccc(F)cc1
3. COc1ccc(C(CC(=O)N2CCOCC2)C(C)C)cc1 (stereo unspecified)
4. COc1cc(C)nc(Oc2ccc(=O)n(C)n2)n1
5. CCOC(=O)C1CCCN(c2nc3ccccc3nc2C(C#N)C(=O)OCCOC)C1 (stereo unspecified)
6. CCc1ccccc1NC(=O)CSC1=C(C#N)C(c2ccc(O)c(OC)c2)C2=C(CCCC2=O)N1 (stereo unspecified)
7. CC1(C)Cc2c(sc3c2C2=NCCN2C=N3)CS1

1: 6.1% (inactive); 2: -156% (inactive); 3: -31.9% (inactive); 4: 13.1% (inactive); 5: -102% (inactive); 6: -146% (inactive); 7: -26.4% (inactive)

---

Biological target: Solute carrier family 12 member 5 (Homo sapiens)
Test: KCC2 modulators without ouabain present, confirmation, cell-based, HEK293 KCC2, thallium flux, FluoZin2, secondary assay 2 (AID 1715);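 also: raw slope with 0.1% DMSO as baseline and bumetanide as block control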
Conditions: HEK293-KCC2, thallium flux FluoZin2 fluorescence; at 10 µM; actives lie on both sides; F/F0 rise rate, 10–20 s post-thallium
The list shows a part of the results. Records with an inconclusive call do not appear. Calls of active or inactive are those of the source.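 How the source made its calls: active means thallium flux slope more than 3 SD above or below the plate's solvent-only control mean, mostly below; inconclusive means the two repeat wells disagreed; inactive means no significant shift from solvent-only controls.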
Pick one: active, inactive

Completed entries (count: 3):
compound | answer label
Cc1nn(-c2ccccc2)c2sc(C(=O)N(Cc3ccco3)C(C)C(=O)NC(C)(C)C)cc12 (stereo unspecified) | inactive
N#Cc1ccc(C(=O)Nc2nc(-c3cccs3)c(C(=O)C(F)(F)F)s2)cc1 | inactive
Cc1ccc(OCc2n[nH]c(=S)n2-c2ccc(C)cc2)cc1 | inactive

Could you please tell me the result logged for S=c1ccc2ccccc2[nH]1 in this assay?
inactive

Any idea what this test logged for O=S(=O)(c1ccc(F)cc1)N1CCN(C(=S)NCc2ccco2)CC1 ?
inactive

Which outcome was assigned to Cc1ccc(Nc2nnc(SCC(=O)c3cc4ccccc4o3)s2)cc1C in this test?
active

Write down the call the test reported for this compound. Item: Cc1cc(C)nc(SC(C)C(=O)N/N=C/c2cccs2)n1 (stereo unspecified)
inactive

---

Biological target: Voltage-gated potassium channel subunit beta-2 (Rattus norvegicus) (UniProt P62483)
Sequence (P62483 whole entry, looked up): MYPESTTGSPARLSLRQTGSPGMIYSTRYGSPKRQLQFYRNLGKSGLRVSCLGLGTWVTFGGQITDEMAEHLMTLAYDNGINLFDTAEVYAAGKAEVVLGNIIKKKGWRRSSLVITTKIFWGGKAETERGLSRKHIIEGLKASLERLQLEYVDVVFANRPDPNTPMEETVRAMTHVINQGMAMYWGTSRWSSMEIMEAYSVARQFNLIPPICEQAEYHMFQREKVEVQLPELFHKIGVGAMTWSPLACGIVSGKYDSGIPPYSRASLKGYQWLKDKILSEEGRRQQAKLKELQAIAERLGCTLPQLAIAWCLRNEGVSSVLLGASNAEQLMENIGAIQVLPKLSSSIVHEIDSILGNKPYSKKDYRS
Test: KvBeta enzyme negative modulators, primary screen, biochemical, NADPH fluorescence (AID 622);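 also: slope of raw intensity against log time taken from 70 to 1610 s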
Conditions: recombinant KvBeta, 4-cyanobenzaldehyde reduction, at 10 µM, stronger effect = higher value
Exercise: state measured fluorescence slope for each of the compounds provided.
Give bare numbers.

compound | study system | val
COCCNc1oc(-c2ccc(Cl)cc2)nc1C#N | Voltage-gated potassium channel subunit beta-2 (Rattus norvegicus) (UniProt P62483) | -0.17
CN(C)CCCOC(=O)C1c2ccccc2Oc2ccccc21 | Voltage-gated potassium channel subunit beta-2 (Rattus norvegicus) (UniProt P62483) | -0.329
CCCCn1c(O)c(C=NCCCN(C)C)c(=O)[nH]c1=O | Voltage-gated potassium channel subunit beta-2 (Rattus norvegicus) (UniProt P62483) | -0.44

Value sought for every listed compound: fluorescence slope.
1. COc1cc(-c2nn3c(COc4ccccc4)nnc3s2)cc(OC)c1OC
2. CC(COc1ccccc1)NC(C)C(O)c1ccc(O)cc1 (centres undefined)
3. CC(NC(=O)NCCCC(=O)O)(C(F)(F)F)C(F)(F)F
4. Cn1cnc2c1c(=O)[nH]c(=O)n2C
5. c1ccc(OCc2nn3c(-c4cccnc4)nnc3s2)cc1
6. CN1C(=O)C2(N=c3ccccc3=N2)c2ccccc21

-0.417
-0.54
-0.428
-0.513
-0.423
-0.482

For each entry beneath this line, provide reported fluorescence slope.
1. O=C1CCC(=O)N1c1nc2nc(-c3ccccc3)cc(-c3ccccc3)n2n1
2. CSc1nc2sc3c(c2c(=O)n1C1CCCCC1)CCN(C)C3
3. COc1cc(-c2nn3c(-c4ccco4)nnc3s2)cc(OC)c1OC
4. Oc1ccc2ccccc2c1/C=N/n1cnnc1
5. Cn1ncc(N=Cc2ccccc2O)c1C(=O)Nc1ccccc1

[-0.467, -0.375, -0.471, -0.356, -0.5]

Dear reader, for each entry below, please note its fluorescence slope.
1. CC1(C)CC(=O)C(C=NCCN2CCN(C(=O)C34CC5CC(CC(C5)C3)C4)CC2)=C(O)C1
2. O=c1[nH]c(-c2ccccn2)nc2ccccc12
3. Cc1cccc(Nc2ncnc3ccccc23)c1

-0.493
-0.555
-0.519

Please give fluorescence slope for each item listed below.
1. COc1cccc(-c2nnc3sc(-c4ccc(C)cc4)nn23)c1
2. CCCOc1cccc(C2C(C(=O)c3ccc(C)o3)=C(O)C(=O)N2CCCN(C)C)c1 (centres undefined)
3. O=C(NCCN1CCOCC1)c1cc2n(n1)C(C(F)(F)F)CC(c1ccc(F)cc1)N2 (centres undefined)
4. Cc1cccc(C)c1N1C(=O)C2ON(c3ccccc3)C(c3ccncc3)C2C1=O (centres undefined)
5. CN1CCN(C(=O)CSc2nc(-c3cccs3)ccc2C#N)CC1

1: -0.414; 2: -0.45; 3: -0.529; 4: -0.442; 5: -0.299

Lab note: each compound below needs its fluorescence slope filled in.
1. O=C1CCC(=O)N1CNc1ccccn1
2. Cc1ccc2c(c1)[C@@H]1CN(C)CC[C@@H]1N2S(=O)(=O)c1ccc(F)cc1

[-0.495, -0.324]

---

Experiment: inhibitors of E-selectin induction by TNFa, primary screen, imaging, HUVEC, immunofluorescence, MLSMR starter and 10KST1 sets (AID 487);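 as to nuclei count: 100% = median nuclei count of all wells on the same plate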
Details: HUVEC TNFalpha-induced E-selectin immunofluorescence imaging, at 2 µM; measured here: cell number, toxicity
outcome measure: nuclei count (%)
Give bare numbers, in %.

molecule | nuclei count [%]
COC(=O)[C@@H](N)Cc1ccc(O)cc1 | 107

I would be grateful if you could provide nuclei count for each of the following entries.
1. O=[N+]([O-])c1cccc2cn[nH]c12
2. CCc1cc(=O)oc2c(CN3CCCC3)c(O)c(Cl)cc12
3. CC1(C)NC(=O)N(CC(O)COc2ccccc2C(=O)Nc2ccccc2)C1=O (stereo unspecified)
4. N#CCCn1cnc2c(=S)nc[nH]c21
5. Cc1ccc(OCC(=O)NCC(=O)n2nc(C)cc2C)cc1
6. CCN1CCN(c2cc3c(cc2F)c(=O)c(C(=O)O)cn3C2CC2)CC1
7. Clc1ccc(-c2cn3c(n2)CCC3)cc1
8. COc1ccc(OC)c(NC(=O)CSC2=C(C#N)C(c3ccco3)C3=C(CCCC3=O)N2)c1 (stereo unspecified)

[116, 98.8, 93.5, 181, 170, 116, 171, 141]

Quick one: give me nuclei count for each item below, same order please.
1. OC[C@H]1O[C@@H](n2cnc3c(NC4CCCC4)ncnc32)[C@H](O)[C@@H]1O
2. Cn1c(Cl)cnc1C1CC(=O)c2cc(Cl)ccc2O1 (stereo unspecified)
3. CC(=O)OCC(=O)[C@H]1CC[C@H]2[C@@H]3CC=C4C[C@@H](O)CC[C@]4(C)[C@H]3CC[C@]12C
4. CC(=O)C1=C(O)C(=O)N(c2cccc(C(=O)O)c2)C1c1ccccc1F (stereo unspecified)

126
112
128
156

Batch request: nuclei count for each of the following molecules.
1. CC1(C)S[C@@H]2[C@H](NC(=O)C(C(=O)O)c3ccccc3)C(=O)N2[C@H]1C(=O)O (stereo partly specified)
2. ClC(Br)=C(n1cnc2ccccc21)n1cnc2ccccc21
3. CCC1(C)Cc2c(sc3[nH]c(=O)[nH]c(=O)c23)CS1 (stereo unspecified)
4. COc1ccc(C2N3CC4(C)CN2CC(C)(C3)C4O)cc1OC (stereo unspecified)
5. CCOc1ccc(-c2nnc3sc(-c4ccccc4OC)nn23)cc1
6. O=C(NC1(C(F)(F)F)C(=O)Nc2c1c(=O)[nH]c(=O)n2Cc1ccco1)C1CCCCC1 (stereo unspecified)
7. COC(=O)c1ccc(Cn2cnc3c(sc4nc(N5CCOCC5)c5c(c43)CCCC5)c2=O)o1
8. Clc1ccc2c(c1)C(N1CCNCC1)=Nc1ccccc1O2

[138, 155, 170, 122, 174, 112, 132, 119]
